Source listed as the supplement of paper PMC12645437.

SYSTEM UNDER TEST: T1, CRBN, Q96SW2;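 further: pooled lentiviral library of zinc finger degron-EGFP fusions in mCherry-positive Jurkat cells, FACS-sorted after compound exposure, with degron abundance counted by next-generation sequencing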
T1 chain: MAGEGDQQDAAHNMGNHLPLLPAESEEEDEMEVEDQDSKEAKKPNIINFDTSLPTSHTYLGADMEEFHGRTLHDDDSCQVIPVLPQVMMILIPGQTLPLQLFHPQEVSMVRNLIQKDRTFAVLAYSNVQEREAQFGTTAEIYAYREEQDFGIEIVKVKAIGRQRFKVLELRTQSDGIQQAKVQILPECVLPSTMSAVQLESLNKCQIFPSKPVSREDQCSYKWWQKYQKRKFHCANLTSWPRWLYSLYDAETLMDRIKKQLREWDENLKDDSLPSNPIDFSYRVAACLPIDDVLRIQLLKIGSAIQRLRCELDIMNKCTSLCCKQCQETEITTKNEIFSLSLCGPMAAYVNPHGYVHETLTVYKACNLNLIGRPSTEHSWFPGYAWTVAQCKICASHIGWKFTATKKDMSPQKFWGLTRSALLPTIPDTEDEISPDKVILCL
TEST: log2 fold change of degron read counts, EGFP-low vs EGFP+ sorted cells (limma voom), compound-induced degradation; higher = more compound-induced degradation of the degron-EGFP fusion; degrons are variants of IKZF1/3 zinc finger 2; compound dose not given here
EXPERIMENTAL CONTEXT: Jurkat; 18 h; compound: compound 19 (5-tert-butyl-thalidomide)
In all, about 8,300 sequences were measured (“log2 fold change of degron read counts, EGFP-low vs EGFP+ sorted cells (limma voom), compound-induced degradation”: median about -1.1, highest 2% from about 3.2 on). The entries come from a sample that favours the highest values as a whole.
MEASURED QUANTITY: log2 fold change of degron read counts

FHCPICGRFFTQKGNLLRHIKL [46F_47H_49P_50I_52G_53R_54F_55F_67L_, Q9UKT9]
-0.744

log2 fold change of degron read counts reported for this sequence FCCEVCGAMFTQKGNLLRHIKL [46F_47C_49E_50V_52G_53A_54M_55F_67L_, Q9UKT9] : 1.54

log2 fold change of degron read counts reported for this sequence FMCEICGRLFTQKGNLLRHIKL [46F_47M_49E_50I_52G_53R_54L_55F_67L_, Q9UKT9] : -2.26

log2 fold change of degron read counts reported for this sequence FACNVCGAMFTQKGNLLRHIKL [46F_47A_49N_50V_52G_53A_54M_55F_67L_, Q9UKT9] : 0.511

log2 fold change of degron read counts reported for this sequence FWCEVCGAMFTQKGNLLRHIKL [46F_47W_49E_50V_52G_53A_54M_55F_67L_, Q9UKT9] : 3.14

log2 fold change of degron read counts reported for this sequence LTCNQCGFKCTQKGNLLRHIKL [46L_47T_49N_50Q_52G_53F_54K_55C_67L_, Q9UKT9] : -2.23

log2 fold change of degron read counts reported for this sequence FHCDICGAQFTQKGNLLRHIKL [46F_47H_49D_50I_52G_53A_54Q_55F_67L_, Q9UKT9] : 1.04

log2 fold change of degron read counts reported for this sequence FQCDICGAQFTQKGNLLRHIKL [46F_47Q_49D_50I_52G_53A_54Q_55F_67L_, Q9UKT9] : -0.785

log2 fold change of degron read counts reported for this sequence FSCEVCGAHFTQKGNLLRHIKL [46F_47S_49E_50V_52G_53A_54H_55F_67L_, Q9UKT9] : 2.19

log2 fold change of degron read counts reported for this sequence FFCDICGAQFTQKGNLLRHIKL [46F_47F_49D_50I_52G_53A_54Q_55F_67L_, Q9UKT9] : 3.41

log2 fold change of degron read counts reported for this sequence FYCDICGAQFTQKGNLLRHIKL [46F_47Y_49D_50I_52G_53A_54Q_55F_67L_, Q9UKT9] : 3.18

log2 fold change of degron read counts reported for this sequence LACPICGFWCTQKGNLLRHIKL [46L_47A_49P_50I_52G_53F_54W_55C_67L_, Q9UKT9] : 2.95

log2 fold change of degron read counts reported for this sequence FWCDICGAQFTQKGNLLRHIKL [46F_47W_49D_50I_52G_53A_54Q_55F_67L_, Q9UKT9] : 2.88

log2 fold change of degron read counts reported for this sequence FDCDICGAQFTQKGNLLRHIKL [46F_47D_49D_50I_52G_53A_54Q_55F_67L_, Q9UKT9] : 0.389

log2 fold change of degron read counts reported for this sequence FLCDICGAQFTQKGNLLRHIKL [46F_47L_49D_50I_52G_53A_54Q_55F_67L_, Q9UKT9] : -0.363
